assay: in vitro; details: human, uninfected MT-4 cells, CC50 (nM), same protocol as Test A, CellTiter-Glo
For each of the compounds below, state its CC50 at 5 days.

Example compounds with recorded CC50 at 5 days:
INSERT INTO measurements (compound, reading) VALUES
  ('NC(=O)c1cc(-c2cccnc2[C@H](Cc2cc(F)cc(F)c2)NC(=O)Cn2cnc3c(=O)[nH]ccc32)ccc1F', '> 53200 nM'),
  ('CC(C(=O)N[C@@H](Cc1cc(F)cc(F)c1)c1ncccc1-c1ccc(F)c(C(N)=O)c1)n1ccc(C(F)(F)F)n1 (stereo partly drawn) [Example 507B]', '> 45300 nM');

We now examine a further compound.
Reported CC50 at 5 days for COC1CN(C(=O)Cc2c(C)n(CC(=O)N[C@@H](Cc3cc(F)cc(F)c3)c3ncccc3-c3ccc(F)c(C(N)=O)c3)c3ccccc23)C1 [Example 579D] was > 53200 nM
